Target: T1, TFAM (no MTS) (Homo sapiens, UniProt Q00059 43-246)
T1 sequence: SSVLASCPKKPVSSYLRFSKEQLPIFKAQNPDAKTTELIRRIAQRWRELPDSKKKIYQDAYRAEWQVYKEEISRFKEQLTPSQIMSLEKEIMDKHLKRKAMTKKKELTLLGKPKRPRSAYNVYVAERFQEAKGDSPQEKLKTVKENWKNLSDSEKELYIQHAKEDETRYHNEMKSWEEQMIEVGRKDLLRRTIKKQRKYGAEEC
Assay: fluorescence anisotropy; +UVC; Hill n 2.18±0.14; FP: 25 mM HEPES, 10 mM Mg(OAc)2, 25 mM NaOAc, 75 mM KOAc, pH 7.5, 1 nM DNA, TFAM 0-15 nM diluted on ice (read temperature not stated); AFM oligos: on ice, 2 min
Conditions: protein: recombinant; label: 5' 6-FAM on strand 1; blunt
EXPERIMENTAL ENDPOINT: Kd (nM)
Your answer is read as nM, so omit the unit and give the number.

Documented Kd of COX2_229 +UVC (dsDNA, UVC 1500 J/m2 photolesions (positions undefined)) DNA 1: GCCCCCATTCGTATAATAATTACATCACAAGAC DNA 2: GTCTTGTGATGTAATTATTATACGAATGGGGGC : 4.87
